target: Serine/threonine-protein kinase B-raf (Homo sapiens, UniProt P15056, V600E); assay: Inhibition of human BRAF V600E mutant by ELISA
Sequence (P15056 2-766 V600E limits assumed): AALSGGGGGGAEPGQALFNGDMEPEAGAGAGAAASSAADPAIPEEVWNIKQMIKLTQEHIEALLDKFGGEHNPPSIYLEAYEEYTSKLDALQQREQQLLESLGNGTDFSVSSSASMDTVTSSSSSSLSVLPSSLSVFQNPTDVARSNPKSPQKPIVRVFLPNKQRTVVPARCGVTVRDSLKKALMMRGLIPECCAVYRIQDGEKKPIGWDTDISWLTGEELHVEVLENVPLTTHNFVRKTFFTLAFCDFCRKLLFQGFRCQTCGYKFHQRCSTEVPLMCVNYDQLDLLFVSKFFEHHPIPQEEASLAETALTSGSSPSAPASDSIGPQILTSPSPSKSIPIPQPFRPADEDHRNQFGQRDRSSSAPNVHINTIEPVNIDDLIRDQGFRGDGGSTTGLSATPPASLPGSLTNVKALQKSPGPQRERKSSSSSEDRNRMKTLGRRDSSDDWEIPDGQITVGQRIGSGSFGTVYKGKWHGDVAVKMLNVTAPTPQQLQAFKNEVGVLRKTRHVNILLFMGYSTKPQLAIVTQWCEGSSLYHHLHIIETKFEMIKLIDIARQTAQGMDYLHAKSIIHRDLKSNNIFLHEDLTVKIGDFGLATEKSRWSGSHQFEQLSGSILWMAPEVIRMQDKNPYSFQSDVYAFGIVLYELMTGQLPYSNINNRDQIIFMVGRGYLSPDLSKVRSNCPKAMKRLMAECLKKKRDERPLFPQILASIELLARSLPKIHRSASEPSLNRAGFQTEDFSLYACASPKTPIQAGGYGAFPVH
pIC50: −log10 of the molar value.
Recorded metric: pIC50

- Cc1ccc(S(=O)(=O)NCCCNc2nccc(-n3ccc4cccnc43)n2)cc1: 6.00
- COc1ccc(S(=O)(=O)NCCCNc2nccc(-n3ccc4cccnc43)n2)cc1: 6.10
- O=S(=O)(NCCCNc1nccc(-n2ccc3cccnc32)n1)c1cccc(C(F)(F)F)c1: 5.96
- O=S(=O)(NCCCNc1nccc(-n2ccc3cccnc32)n1)c1ccc(F)cc1: 6.06
- O=C(Nc1ccc(Br)cc1)Nc1ccc(F)c(C(=O)c2c[nH]c3ncc(Br)cc23)c1F: 7.10
- O=S(=O)(NCCCNc1nccc(-n2ccc3cccnc32)n1)c1ccccc1: 6.12
- O=C(Nc1ccc(C(F)(F)F)cc1)Nc1ccc(F)c(C(=O)c2c[nH]c3ncccc23)c1F: 6.94
- Cc1ccc(NC(=O)Nc2ccc(F)c(C(=O)c3c[nH]c4ncccc34)c2F)cc1: 7.07
- O=S(=O)(NCCCNc1nccc(-n2ccc3cccnc32)n1)c1cccc(Br)c1: 6.30
- O=S(=O)(NCCCNc1nccc(-n2ccc3cccnc32)n1)c1ccc(Br)cc1: 6.46
